Molecular target: KIT (Homo sapiens)
Construct: made in house
Sequence (P10721 26-976): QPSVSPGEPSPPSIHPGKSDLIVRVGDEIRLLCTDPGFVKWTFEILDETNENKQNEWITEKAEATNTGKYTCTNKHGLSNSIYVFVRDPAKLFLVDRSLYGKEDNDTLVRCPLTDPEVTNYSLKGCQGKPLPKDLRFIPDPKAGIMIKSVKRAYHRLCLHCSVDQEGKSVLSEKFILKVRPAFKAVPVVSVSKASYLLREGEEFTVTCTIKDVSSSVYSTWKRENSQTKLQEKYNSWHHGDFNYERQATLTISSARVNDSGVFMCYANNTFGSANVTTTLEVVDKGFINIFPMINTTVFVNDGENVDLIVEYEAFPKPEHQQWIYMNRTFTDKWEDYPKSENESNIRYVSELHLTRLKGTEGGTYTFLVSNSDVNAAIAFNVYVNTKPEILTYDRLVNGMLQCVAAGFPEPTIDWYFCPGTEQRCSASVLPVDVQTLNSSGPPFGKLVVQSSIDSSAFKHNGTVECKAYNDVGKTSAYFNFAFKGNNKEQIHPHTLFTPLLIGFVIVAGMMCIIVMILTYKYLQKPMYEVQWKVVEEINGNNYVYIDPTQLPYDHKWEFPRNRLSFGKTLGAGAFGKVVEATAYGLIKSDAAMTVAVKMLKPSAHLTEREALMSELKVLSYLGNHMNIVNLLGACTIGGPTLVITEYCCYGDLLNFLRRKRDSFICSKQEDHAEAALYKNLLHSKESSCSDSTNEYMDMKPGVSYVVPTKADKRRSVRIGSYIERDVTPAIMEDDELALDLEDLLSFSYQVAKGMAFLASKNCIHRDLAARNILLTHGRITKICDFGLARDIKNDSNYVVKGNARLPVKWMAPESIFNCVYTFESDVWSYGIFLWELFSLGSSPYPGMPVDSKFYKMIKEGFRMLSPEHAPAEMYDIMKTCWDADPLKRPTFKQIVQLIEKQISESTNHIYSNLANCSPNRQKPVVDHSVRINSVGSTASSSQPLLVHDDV
Assay: Competition binding assay, KIT Kd
Conditions: competition binding
Protocol: Competition binding assays used herein were developed, validated and performed as described in Fabian et al., Nature Biotechnology 2005, 23, 329-336. […] Kds were determined using an eleven point threefold serial dilutions. […] The kinase concentration in the eluates was measured by quantitative PCR.
pKd: −log10 of the molar value.
Item-by-item account of pKd

A selection of reference data follows.
OC[C@H]1CC[C@H](Nc2nc3ccc(Cn4cnc5cc(F)cnc54)cc3s2)CC1 [Example 179] ... ≥ 7.00
O[C@@H]1CCCC[C@H]1Nc1nc2ccc(Cc3cnc4[nH]c5ccccc5n34)cc2s1 [Example 205] ... 5.70 to 6.30

We next turn to a different compound, shown below.
Consider the compound O[C@@H]1CCCC[C@H]1Nc1nc2ccc(Cc3cnc4cc(-n5ccnn5)ccn34)cc2s1 [Example 218] and give its measured pKd.
5.70 to 6.30

----------
Molecular target: CSF1R (Homo sapiens, UniProt P07333)
Sequence (P07333 20-972): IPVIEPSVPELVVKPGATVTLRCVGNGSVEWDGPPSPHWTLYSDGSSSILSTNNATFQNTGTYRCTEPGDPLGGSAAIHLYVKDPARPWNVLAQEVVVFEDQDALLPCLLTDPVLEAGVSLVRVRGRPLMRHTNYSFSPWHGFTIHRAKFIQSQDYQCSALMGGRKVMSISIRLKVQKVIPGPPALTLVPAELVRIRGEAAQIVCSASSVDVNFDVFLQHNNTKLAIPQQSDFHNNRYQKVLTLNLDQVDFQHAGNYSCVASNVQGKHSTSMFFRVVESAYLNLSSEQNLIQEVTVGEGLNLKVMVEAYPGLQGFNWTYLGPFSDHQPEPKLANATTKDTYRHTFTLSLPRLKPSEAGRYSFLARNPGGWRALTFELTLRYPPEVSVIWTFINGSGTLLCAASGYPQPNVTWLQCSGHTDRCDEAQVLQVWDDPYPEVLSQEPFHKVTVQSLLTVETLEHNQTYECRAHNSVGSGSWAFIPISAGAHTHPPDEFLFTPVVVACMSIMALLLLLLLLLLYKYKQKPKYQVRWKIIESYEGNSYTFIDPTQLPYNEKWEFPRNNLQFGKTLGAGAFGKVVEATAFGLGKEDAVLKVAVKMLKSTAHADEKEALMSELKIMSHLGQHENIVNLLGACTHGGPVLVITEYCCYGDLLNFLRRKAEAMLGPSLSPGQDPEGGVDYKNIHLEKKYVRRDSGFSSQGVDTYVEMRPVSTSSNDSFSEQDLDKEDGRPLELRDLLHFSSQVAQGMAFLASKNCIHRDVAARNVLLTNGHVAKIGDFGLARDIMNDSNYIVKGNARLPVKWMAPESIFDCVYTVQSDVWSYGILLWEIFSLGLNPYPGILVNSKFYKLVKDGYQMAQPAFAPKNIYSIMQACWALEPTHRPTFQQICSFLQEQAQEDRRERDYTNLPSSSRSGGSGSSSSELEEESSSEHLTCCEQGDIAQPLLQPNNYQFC
Assay: Competition binding assay, CSF1R Kd
Parameters: made in house
Item-by-item account of Kd

A selection of reference data follows.
COc1ccccc1Nc1nc2ccc(Cn3cnc4cc(OC)c(OC)cc43)cc2s1 [Example 30] ... ≤ 5 nM
OCc1cnc2c(c1)ncn2Cc1ccc2nc(N[C@@H]3CCCC[C@H]3O)sc2c1 [Example 84] ... 5 to 20 nM
O[C@@H]1CCCC[C@H]1Nc1nc2ccc(Cn3cnc4cc(CN5CCOCC5)cnc43)cc2s1 [Example 82] ... 5 to 20 nM
O[C@@H]1CCCC[C@H]1Nc1nc2ccc(Cn3cnc4cncnc43)cc2s1 [Example 48] ... 5 to 20 nM
CSc1cnc2c(c1)ncn2Cc1ccc2nc(N[C@@H]3CCCC[C@H]3O)sc2c1 [Example 85] ... ≤ 5 nM

Consider the compound COC(c1ccc2nc(N[C@@H]3CCCC[C@H]3O)sc2c1)c1c[nH]c2ncccc12 (stereo partly shown) [Example 12] and give its measured Kd.
> 50 nM

Another compound to check: N#Cc1ccc2ncn(Cc3ccc4nc(N[C@@H]5CCCC[C@H]5O)sc4c3)c2n1 [Example 87]
≤ 5 nM

Another compound to check: O[C@@H]1CCCC[C@H]1Nc1nc2ccc(Cn3cnc4cc(Br)ccc43)cc2s1 [Example 100]
5 to 20 nM

Another compound to check: O[C@@H]1CCCC[C@H]1Nc1nc2ccc(Cn3cnc4cccnc43)cc2o1 [Example 56]
5 to 20 nM

Another compound to check: CC(=O)Nc1cn(Cc2ccc3nc(N[C@@H]4CCCC[C@H]4O)sc3c2)cn1 [Example 101]
20 to 50 nM

----------
Biological target: FLT3 (Homo sapiens)
Construct: made in house
Sequence (P36888 27-993): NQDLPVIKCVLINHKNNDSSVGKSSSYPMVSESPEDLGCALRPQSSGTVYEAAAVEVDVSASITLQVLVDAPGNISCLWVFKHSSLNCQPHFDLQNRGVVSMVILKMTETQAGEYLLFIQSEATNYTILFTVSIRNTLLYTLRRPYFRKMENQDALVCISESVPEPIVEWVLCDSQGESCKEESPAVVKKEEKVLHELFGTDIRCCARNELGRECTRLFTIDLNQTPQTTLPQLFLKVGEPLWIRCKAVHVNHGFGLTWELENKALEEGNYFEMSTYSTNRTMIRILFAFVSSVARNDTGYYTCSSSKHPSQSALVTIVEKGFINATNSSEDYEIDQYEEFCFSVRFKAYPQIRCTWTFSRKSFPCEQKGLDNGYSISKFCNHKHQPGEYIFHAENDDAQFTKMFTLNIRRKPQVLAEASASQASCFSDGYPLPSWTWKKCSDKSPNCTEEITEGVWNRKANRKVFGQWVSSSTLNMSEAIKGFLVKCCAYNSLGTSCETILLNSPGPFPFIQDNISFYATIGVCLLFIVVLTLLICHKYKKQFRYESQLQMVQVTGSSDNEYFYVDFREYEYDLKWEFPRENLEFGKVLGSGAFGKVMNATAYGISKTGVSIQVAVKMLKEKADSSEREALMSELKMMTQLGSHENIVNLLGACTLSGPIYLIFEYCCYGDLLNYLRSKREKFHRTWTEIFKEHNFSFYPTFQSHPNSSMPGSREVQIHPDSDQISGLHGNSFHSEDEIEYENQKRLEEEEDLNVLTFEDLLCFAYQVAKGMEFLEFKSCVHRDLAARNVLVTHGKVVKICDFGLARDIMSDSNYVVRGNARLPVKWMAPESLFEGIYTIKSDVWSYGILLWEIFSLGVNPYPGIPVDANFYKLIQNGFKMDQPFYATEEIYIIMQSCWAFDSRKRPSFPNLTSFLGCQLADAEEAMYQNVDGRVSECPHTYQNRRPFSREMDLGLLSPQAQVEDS
Assay: Competition binding assay, FLT3 Kd
Procedure: Competition binding assays used herein were developed, validated and performed as described in Fabian et al., Nature Biotechnology 2005, 23, 329-336. […] Kds were determined using an eleven point threefold serial dilutions. […] The kinase concentration in the eluates was measured by quantitative PCR.
pKd: −log10 of the molar value.
Item-by-item account of pKd

A selection of reference data follows.
COc1ccn2c(Cc3ccc4nc(N[C@@H]5CCCC[C@H]5O)sc4c3)cnc2c1 ... < 5.30
OC[C@H](Nc1nc2ccc(Cn3cnc4cccnc43)cc2s1)C1CCCCC1 ... 6.00 to 6.70

Consider the molecule COc1cc2ncn(Cc3ccc4nc(NC5CCOC5)sc4c3)c2cc1OC (racemic) and give its measured pKd.
< 5.30

Another molecule to check: O[C@@H]1CCCC[C@H]1Nc1nc2ccc(Cn3cnc4cc(F)cnc43)cc2s1
5.30 to 6.00

Another molecule to check: COc1cc2ncn(Cc3ccc4nc(N[C@@H]5CCCCC5O)sc4c3)c2cc1OC (stereo in doubt)
6.00 to 6.70

These measurements were taken from patent US9938261B2.
